Tested on: UGT2B
Test: in vitro
Settings: male, Sprague-Dawley, rat, % Inhibition (Mean ± SD)
measured parameter: inhibition at 60 min, 850 µM
Write the numeric value and follow it with the unit.

Use these answered entries as a reference point.
{"compound": "O=c1ccc2ccc(O)cc2o1", "system tested": "UGT2B", "inhibition at 60 min, 850 µM": "-20.6%"}
{"compound": "C=CC(=C)CCC=C(C)C", "system tested": "UGT2B", "inhibition at 60 min, 850 µM": "34.9%"}
{"compound": "CCCCCCCCCCCCCC(=O)OCC [ethyl myristate, Ethyl Myristate]", "system tested": "UGT2B", "inhibition at 60 min, 850 µM": "6.33%"}

**Q:** Return inhibition at 60 min, 850 µM (reported value) for this compound: O=C1CC(c2ccc(O)c(O)c2)Oc2cc(O)cc(O)c21 (stereo not drawn)
**A:** 14.1%

**Q:** Return the recorded inhibition at 60 min, 850 µM value; entry: O=C(O)c1cc(O)c(O)c(O)c1
**A:** 12.2%

**Q:** Return reported inhibition at 60 min, 850 µM. Input compound: O=C(O)c1ccc(O)c(O)c1
**A:** 9.84%

**Q:** Name the recorded inhibition at 60 min, 850 µM of the compound listed here: CC(=O)OCCCc1ccccc1 [3-phenylpropyl acetate, 3-Phenylpropyl Acetate]
**A:** 2.39%

**Q:** Please supply the value of reported inhibition at 60 min, 850 µM for the item CCCCCCCCCCCCO
**A:** 6.23%

**Q:** Entry COc1ccc(C2CC(=O)c3c(O)cc(O)cc3O2)cc1O (stereo not drawn) needs its inhibition at 60 min, 850 µM filled in; supply it.
**A:** -124%

====

System: UGT2B
Test: in vitro
Settings: male, Sprague-Dawley, rat, % Inhibition (Mean ± SD)
Reported inhibition at 60 min, 85 µM values follow for various molecules
Numbers only; they are read as %.

Example entries and their recorded answers appear below.
{"molecule": "O=c1ccc2ccc(O)cc2o1", "inhibition at 60 min, 85 µM, %": 4.6}
{"molecule": "O=C(O)c1cc(O)c(O)c(O)c1", "inhibition at 60 min, 85 µM, %": 8.05}
{"molecule": "O=c1cc(-c2ccccc2)oc2ccc3ccccc3c12", "inhibition at 60 min, 85 µM, %": 86}
{"molecule": "COc1c(O)cc2oc(Oc3ccc(O)cc3)cc(=O)c2c1O", "inhibition at 60 min, 85 µM, %": 105}
{"molecule": "O=c1cc(-c2ccccc2)oc2c1ccc1ccccc12", "inhibition at 60 min, 85 µM, %": 97.8}
{"molecule": "COc1ccc(C2CC(=O)c3c(O)cc(O)cc3O2)cc1O (stereo not shown)", "inhibition at 60 min, 85 µM, %": -59.1}

Turning now to a further record.
**Q:** Determine its reported inhibition at 60 min, 85 µM: CC1(C)[C@@H](O[C@H]2O[C@H](C(=O)O)[C@@H](O)[C@H](O)[C@H]2O[C@@H]2O[C@H](C(=O)O)[C@@H](O)[C@H](O)[C@H]2O)CC[C@]2(C)[C@H]3C(=O)C=C4[C@@H]5C[C@@](C)(C(=O)O)CC[C@]5(C)CC[C@@]4(C)[C@]3(C)CC[C@@H]12
**A:** -20.3
